Taken from ChEMBL document CHEMBL3108710.

Reported Vd values follow for various compounds
test: Volume of distribution at steady state in Han Wistar rat at 0.5 mg/kg, iv by LC-MS/MS analysis; format: ADME, organism-based; design: dose 0.5 mg/kg, route intravenous; details: in vivo, read-out: Vdss

{"molecular string": "CN[C@@H](C)C(=O)N[C@H](C(=O)N1CCC[C@H]1C(=O)N[C@H]1c2ccccc2C[C@H]1NC(=O)c1ccc(C(=O)N[C@@H]2Cc3ccccc3[C@@H]2NC(=O)[C@@H]2CCCN2C(=O)[C@@H](NC(=O)[C@H](C)NC)C2CCCCC2)cc1)C1CCCCC1", "Vd [L/kg]": 1.4}
{"molecular string": "CN[C@@H](C)C(=O)N[C@H](C(=O)N1CCC[C@H]1C(=O)N[C@H]1c2ccccc2C[C@H]1OCC#CC#CCO[C@@H]1Cc2ccccc2[C@@H]1NC(=O)[C@@H]1CCCN1C(=O)[C@@H](NC(=O)[C@H](C)NC)C1CCCCC1)C1CCCCC1", "Vd [L/kg]": 0.8}

====

test: Volume of distribution at steady state in Han Wistar rat at 1 mg/kg, iv by LC-MS/MS analysis; type: ADME, organism-based; parameters: dose 1 mg/kg, route intravenous; details: in vivo, read-out: Vdss

{"molecular string": "CN[C@@H](C)C(=O)N[C@H](C(=O)N1CCC[C@H]1C(=O)N[C@H]1c2ccccc2C[C@H]1OCCOCCO[C@@H]1Cc2ccccc2[C@@H]1NC(=O)[C@@H]1CCCN1C(=O)[C@@H](NC(=O)[C@H](C)NC)C1CCCCC1)C1CCCCC1", "Vd [L/kg]": 1.9}

====

assay: Total plasma clearance in Han Wistar rat at 0.2 mg/kg, iv by LC-MS/MS analysis; type: ADME, organism-based; design: dose 0.2 mg/kg, route intravenous

{"molecular string": "CN[C@@H](C)C(=O)N[C@H](C(=O)N1CCC[C@H]1C(=O)N[C@H]1c2ccccc2C[C@H]1OCC#CC#CCO[C@@H]1Cc2ccccc2[C@@H]1NC(=O)[C@@H]1CCCN1C(=O)[C@@H](NC(=O)[C@H](C)NC)C(C)C)C(C)C", "units text": "mL/min/kg", "clearance": 44}
{"molecular string": "CN[C@@H](C)C(=O)N[C@H](C(=O)N1CCC[C@H]1C(=O)N[C@H]1c2ccccc2CC[C@H]1OCC#CC#CCO[C@@H]1CCc2ccccc2[C@@H]1NC(=O)[C@@H]1CCCN1C(=O)[C@@H](NC(=O)[C@H](C)NC)C(C)(C)C)C(C)(C)C", "units text": "mL/min/kg", "clearance": 111}
{"molecular string": "CN[C@@H](C)C(=O)N[C@H](C(=O)N1CCC[C@H]1C(=O)N[C@@H]1CCN(CC#CC#CCN2CC[C@@H](NC(=O)[C@@H]3CCCN3C(=O)[C@@H](NC(=O)[C@H](C)NC)C3CCCCC3)c3ccccc32)c2ccccc21)C1CCCCC1", "units text": "mL/min/kg", "clearance": 68}

====

assay: Elimination half life in Han Wistar rat at 0.8 mg/kg, iv by LC-MS/MS analysis; format: ADME, organism-based; design: dose 0.8 mg/kg, route intravenous; conditions: in vivo, read-out: beta t1/2 (converted)

{"molecular string": "CN[C@@H](C)C(=O)N[C@H](C(=O)N1CCC[C@H]1C(=O)N[C@H]1c2ccccc2C[C@H]1OCCCCCCO[C@@H]1Cc2ccccc2[C@@H]1NC(=O)[C@@H]1CCCN1C(=O)[C@@H](NC(=O)[C@H](C)NC)C1CCCCC1)C1CCCCC1", "units text": "h", "half-life": 3.6}
